B1: LINE1-full (parent)
chain: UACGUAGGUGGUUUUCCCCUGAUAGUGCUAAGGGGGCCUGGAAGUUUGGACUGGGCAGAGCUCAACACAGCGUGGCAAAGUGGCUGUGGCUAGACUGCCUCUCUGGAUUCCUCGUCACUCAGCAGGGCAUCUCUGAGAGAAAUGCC

# Variants of: B1
# assay_text: self-cleavage, relative activity (ratio to wild type); higher = more cleavage; in vitro, sequencing; the parent is a self-cleaving ribozyme
Each entry below carries its reported self-cleavage.
test_readout: self-cleavage

1) A92G A129G
0
2) C99U U134A
0.37
3) A79U U112A
1.97
4) U20C A138U
1.42
5) U119C U130A
1.93
6) A117G C118U
1.44
7) A43G A57U
0.21
8) G83C A117G
0.76
9) U9C C38U
1.29
10) A6U A59C
0.74
11) G41A U104C
1.53
12) U20C A124U
1.17
13) A57C G86A
0.04
14) U15A U52G
1.23
15) A6U C18U
0.84
16) A30U A65C
0.1
17) U5A U47A
0.59
18) U39A U81C
1.39
19) U52C G83A
0.53
20) A69G C103A
0.43
21) G25A U96C
0
22) A59G U130A
0.1
